Hey, just so you know, these numbers are from PubChem BioAssay (NCATS).

biological target: Glucocorticoid receptor (Homo sapiens) (UniProt P04150); experiment: GR-GFP Redistribution (AID 450); conditions: U2OS GR-GFP nuclear translocation, laser cytometry, 2 h; further: potency means the concentration at half of the fitted maximal effect
Sequence (P04150 whole entry, looked up): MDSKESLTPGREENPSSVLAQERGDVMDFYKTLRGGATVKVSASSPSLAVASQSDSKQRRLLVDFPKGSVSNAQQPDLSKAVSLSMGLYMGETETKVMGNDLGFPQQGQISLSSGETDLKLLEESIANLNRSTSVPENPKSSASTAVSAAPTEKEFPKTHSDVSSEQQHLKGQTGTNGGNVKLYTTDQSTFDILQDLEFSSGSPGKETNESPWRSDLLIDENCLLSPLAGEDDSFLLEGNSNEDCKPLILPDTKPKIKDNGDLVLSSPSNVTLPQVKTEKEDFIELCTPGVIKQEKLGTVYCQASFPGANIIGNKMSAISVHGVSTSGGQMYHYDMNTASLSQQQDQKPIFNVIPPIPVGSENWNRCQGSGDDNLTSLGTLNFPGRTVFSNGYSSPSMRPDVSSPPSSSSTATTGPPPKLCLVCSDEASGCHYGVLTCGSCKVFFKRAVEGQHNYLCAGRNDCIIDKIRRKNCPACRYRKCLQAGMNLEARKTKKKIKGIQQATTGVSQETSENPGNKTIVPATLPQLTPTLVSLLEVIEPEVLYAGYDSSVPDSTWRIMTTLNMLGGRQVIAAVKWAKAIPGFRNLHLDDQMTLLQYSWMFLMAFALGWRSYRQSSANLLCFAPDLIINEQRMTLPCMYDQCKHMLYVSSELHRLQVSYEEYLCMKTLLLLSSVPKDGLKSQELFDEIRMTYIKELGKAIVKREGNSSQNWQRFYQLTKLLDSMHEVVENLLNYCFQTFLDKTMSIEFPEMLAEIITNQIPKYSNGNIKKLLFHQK
Active and inactive are the calls of the source.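 How the source made its calls: active means compounds whose dose series gives a full or clear partial fitted curve of increased nuclear translocation; inconclusive means weak partial curve or effect only at the top dose; inactive means no dose-dependent translocation response.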
MEASUREMENT LABEL: Potency

{"columns": ["SMILES STRING", "MEASUREMENT LABEL", "EXPERIMENTAL RESULT"],
 "data": [
  ["COc1cccc(-c2ccc3ncnc(N(C)Cc4ccco4)c3c2)c1", "Potency", "> 46 µM (inactive)"],
  ["NCCn1c(=O)c(CCc2ccccc2)nc2cncnc21", "Potency", "> 9.22 µM (inactive)"],
  ["Clc1ccccc1-c1cncnc1NCc1cccs1", "Potency", "> 46 µM (inactive)"],
  ["COCCn1c(=O)c(C)nc2cnc(N3CCNCC3)nc21", "Potency", "> 9.22 µM (inactive)"],
  ["COc1ncc2nc(-c3cc(F)cc(F)c3)c(=O)n(-c3ccccc3)c2n1", "Potency", "> 9.22 µM (inactive)"],
  ["COc1cccc(-c2cncnc2N(C)Cc2ccco2)c1", "Potency", "> 46 µM (inactive)"],
  ["N#CCCn1c(=O)cnc2cnc(N3CCOCC3)nc21", "Potency", "> 9.22 µM (inactive)"],
  ["COc1ccc(-n2c(=O)cnc3cnc(N4CCNCC4)nc32)cc1", "Potency", "> 9.22 µM (inactive)"],
  ["COc1ccc(-c2nc3cnc(N4CCOCC4)nc3n(C3CC3)c2=O)cc1", "Potency", "> 9.22 µM (inactive)"],
  ["COCCn1c(=O)c(-c2cn(C)c3ccccc23)nc2cnc(N3CCOCC3)nc21", "Potency", "> 9.22 µM (inactive)"],
  ["Cn1cc(-c2nc3cnc(Oc4ccccc4)nc3n(C3CC3)c2=O)c2ccccc21", "Potency", "> 9.22 µM (inactive)"]
]}
